Each recorded value in this set is attributed to patent US5543426A.

Biological target: 5-HT3 binding sites (Mus musculus, UniProt P23979)
Construct: endogenous in cells
Sequence (P23979 24-489): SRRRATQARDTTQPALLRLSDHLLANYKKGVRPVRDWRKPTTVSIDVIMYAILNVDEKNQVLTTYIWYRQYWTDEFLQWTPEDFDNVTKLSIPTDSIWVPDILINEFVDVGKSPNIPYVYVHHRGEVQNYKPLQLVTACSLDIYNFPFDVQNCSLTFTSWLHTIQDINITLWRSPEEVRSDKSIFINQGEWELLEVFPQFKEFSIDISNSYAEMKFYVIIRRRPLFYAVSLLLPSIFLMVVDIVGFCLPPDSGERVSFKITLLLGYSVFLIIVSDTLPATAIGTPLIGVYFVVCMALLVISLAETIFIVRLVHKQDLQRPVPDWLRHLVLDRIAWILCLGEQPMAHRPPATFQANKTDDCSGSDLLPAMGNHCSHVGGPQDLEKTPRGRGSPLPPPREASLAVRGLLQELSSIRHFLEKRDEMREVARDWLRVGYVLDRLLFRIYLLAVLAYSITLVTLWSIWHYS
Assay: binding to 5-HT3 binding sites, N1E-115 cells (method of Hoyer and Neijt)
measurement_kind: Kd (nM)
The figure you give is taken to be in nM; do not add the unit.

Task: What measured Kd goes with COc1cccc2c(C(=O)O[C@H]3C[C@H]4CC[C@@H](C3)N4C)c[nH]c12 ?
Result: 1.35
